- Tested on: SNU1967
- assay: Cell viability drug screen, 12-point dose-response AUC
- Assay type: cell-based, human
- measurement-parameters: SNU1967 cells; 72 hours; 12-point dose-response
Structures can show the parent of a compound that is named as a salt.
assay-metric: area under the viability curve (AUC), normalized
Number, no unit, nothing else.

Recorded area under the viability curve (AUC), normalized of CC(=O)O[C@H]1C(=O)[C@@]2(C)[C@H]([C@H](OC(=O)c3ccccc3)[C@]3(O)C[C@H](OC(=O)[C@H](O)[C@@H](NC(=O)c4ccccc4)c4ccccc4)C(C)=C1C3(C)C)[C@]1(OC(C)=O)CO[C@@H]1C[C@@H]2O , please.
0.05016

Please look up its area under the viability curve (AUC), normalized: CCCCc1nc2cc(/C=C/C(=O)NO)ccc2n1CCN(CC)CC
−0.4581

Name the recorded area under the viability curve (AUC), normalized for C/C(=C\c1csc(C)n1)[C@@H]1C[C@@H]2O[C@@H]2CCC[C@H](C)[C@H](O)[C@@H](C)C(=O)C(C)(C)[C@@H](O)CC(=O)O1 .
0.6477

Need area under the viability curve (AUC), normalized, item CCCOc1ccc2nc(NC(=O)OC)[nH]c2c1
0

I'd like to know its area under the viability curve (AUC), normalized. The compound in question is COCCn1c2c([n+](Cc3cnccn3)c1C)C(=O)c1ccccc1C2=O
−0.2044

What value of area under the viability curve (AUC), normalized has been reported for the following compound? O=C1c2c(O)ccc(O)c2C(=O)c2c(NCCNCCO)ccc(NCCNCCO)c21 [Mitoxantrone Hydrochloride]
−1.342

Would you mind telling me what area under the viability curve (AUC), normalized value was observed for COC(=O)Nc1nc2ccc(Sc3ccccc3)cc2[nH]1 ?
0.184

I'd like to know its area under the viability curve (AUC), normalized. The compound in question is CC(C)C[C@H](NC(=O)[C@H](Cc1ccccc1)NC(=O)c1cnccn1)B(O)O
−0.8453

Record request: area under the viability curve (AUC), normalized value, item C#Cc1cccc(Nc2ncnc3cc(OC)c(OCCCCCCC(=O)NO)cc23)c1
−0.301

----------
- Test system: SNU620
- assay: Cell viability drug screen, 12-point dose-response AUC
- Type: cell-based, human
- measurement-parameters: SNU620 cells; 72 hours; 12-point dose-response
Where a name gives a salt, the structure may show the parent alone.
assay-metric: area under the viability curve (AUC), normalized
Number only, no unit.

1. Nc1cc(C(F)(F)F)c(-c2cc(N3CCOCC3)nc(N3CCOCC3)n2)cn1: −0.08823
2. CCCOc1ccc2nc(NC(=O)OC)[nH]c2c1: −1.528
3. O=C1c2c(O)ccc(O)c2C(=O)c2c(NCCNCCO)ccc(NCCNCCO)c21 [Mitoxantrone Hydrochloride]: −0.6012

Name the reported area under the viability curve (AUC), normalized value associated with the compound C/C(=C\c1csc(C)n1)[C@@H]1C[C@@H]2O[C@@H]2CCC[C@H](C)[C@H](O)[C@@H](C)C(=O)C(C)(C)[C@@H](O)CC(=O)O1
−2.268

Data request, read-out area under the viability curve (AUC), normalized, for CCCCc1nc2cc(/C=C/C(=O)NO)ccc2n1CCN(CC)CC
−1.199

I am curious: what area under the viability curve (AUC), normalized value has been reported for Cc1ccc(C(=O)N(CCCN)[C@@H](c2oc3cc(Cl)ccc3c(=O)c2Cc2ccccc2)C(C)C)cc1 ?
−2.366

Fill in: area under the viability curve (AUC), normalized of CC(C)[C@]12O[C@H]1[C@@H]1O[C@]13[C@]1(O[C@H]1C[C@H]1C4=C(CC[C@@]13C)C(=O)OC4)[C@@H]2O [Triptolide] is ___
−0.986

Hey, just so you know, these numbers are from patent US20250129430A1.
